The reported numbers originate from ChEMBL document CHEMBL3871292.

Tested on: Trypanosoma brucei
experiment-notes: Inhibition of Trypanosoma brucei rhodesain using Cbz-Phe-Arg-AMC as substrate at 20 uM by fluorescence-based assay
Please provide measured inhibition for the entries that follow.

Some solved cases for reference:
compound=CCN(CC)c1ccc2cc(C(=O)NC3(C(=O)NCC#N)CCCCC3)c(=O)oc2c1 tgt="Trypanosoma brucei" measured_endpoint=inhibition measured_value="> 50%"
compound=N#CCNC(=O)[C@H](Cc1cccc(Br)c1)NC(=O)c1ccc(-c2ccccc2)cc1 tgt="Trypanosoma brucei" measured_endpoint=inhibition measured_value="> 50%"
compound=CCCC[C@H](NC(=O)OC(C)(C)C)C(=O)NCC#N tgt="Trypanosoma brucei" measured_endpoint=inhibition measured_value="> 50%"

Hi there! I need inhibition for each item below, if you can.
1. CC(C)(C)OC(=O)N[C@@H](Cc1ccc(-c2ccccc2)cc1)C(=O)NCC#N
2. CC(C)(C)OC(=O)N[C@@H](Cc1cccc(F)c1)C(=O)NCC#N
3. N#CCNC(=O)C1(NC(=O)OCc2ccccc2)CCCCC1
4. CC(C)(C)OC(=O)N[C@@H](CC1CC1)C(=O)NCC#N
5. CC[C@H](C)[C@H](NC(=O)OC(C)(C)C)C(=O)NCC#N
6. CC(C)(C)OC(=O)N[C@@H](Cc1ccccc1F)C(=O)NCC#N

1. > 50%
2. > 50%
3. 22%
4. 30%
5. > 50%
6. > 50%

Hi there! I need inhibition for each item below, if you can.
1. CC(C)CS(=O)(=O)CC(NC(=O)c1ccc(-c2ccccc2)s1)C(=O)NCC#N (racemic)
2. CC(C)CS(=O)(=O)CC(NC(=O)c1cccs1)C(=O)NCC#N (racemic)
3. CC(C)(C)OC(=O)N[C@H](CC(=O)NC#N)Cc1ccccc1

1. 37%
2. 9%
3. > 50%

Hi there! I need inhibition for each item below, if you can.
1. CC(C)(C)OC(=O)N[C@@H](Cc1ccc(F)cc1)C(=O)NCC#N
2. CC(C)(C)OC(=O)N[C@@H](COCc1ccccc1)C(=O)NCC#N
3. COc1ccc(C[C@H](NC(=O)OCc2ccccc2)C(=O)NCC#N)cc1
4. CC(C)(C)OC(=O)N[C@@H](Cc1ccsc1)C(=O)NCC#N

1. > 50%
2. > 50%
3. > 50%
4. > 50%

Hi there! I need inhibition for each item below, if you can.
1. CC(C)(C)OC(=O)N[C@@H](Cc1c[nH]c2ccccc12)C(=O)NCC#N
2. CC(C)(C)OC(=O)N[C@@H](Cc1cccc(Br)c1)C(=O)NCC#N
3. CN(C)c1cccc2c(S(=O)(=O)NC3(C(=O)NCC#N)CCCCC3)cccc12

["> 50%", "> 50%", "11%"]

###

Please provide measured Ki for the entries that follow.
experiment-notes: Competitive inhibition of Trypanosoma brucei rhodesain in presence of varying levels of Cbz-Phe-Arg-AMC substrate by Cheng-Prusoff equation analysis
Numbers only, in nM.

given_smiles=N#CCNC(=O)[C@H](Cc1cccc(Br)c1)NC(=O)c1ccc(-c2ccccc2)cc1 measured_value=2.6

# evaluate next
Find the recorded Ki belonging to "CC(C)C[C@H](NC(=O)c1ccc(-c2noc(-c3cccs3)n2)cc1)C(=O)NCC#N" and report it. 5.3

###

tgt: Procathepsin L (Homo sapiens)
Sequence (P07711 whole entry): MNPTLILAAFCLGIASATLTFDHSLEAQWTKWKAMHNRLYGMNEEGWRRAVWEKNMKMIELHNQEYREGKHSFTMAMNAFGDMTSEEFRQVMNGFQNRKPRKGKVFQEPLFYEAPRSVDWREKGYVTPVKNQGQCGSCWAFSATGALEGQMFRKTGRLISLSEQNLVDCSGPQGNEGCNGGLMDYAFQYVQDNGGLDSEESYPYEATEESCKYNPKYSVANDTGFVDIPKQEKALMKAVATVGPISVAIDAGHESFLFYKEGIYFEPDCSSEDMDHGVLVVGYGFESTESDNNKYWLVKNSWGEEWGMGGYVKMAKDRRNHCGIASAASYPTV
experiment-notes: Inhibition of human cathepsin L using Z-Phe-Arg-pNA as substrate measured after 10 to 80 mins by spectrophotometric method
measured-endpoint: Ki

Requested read-out Ki, target or system Procathepsin L (Homo sapiens), entry "N#CCNC(=O)C1(NC(=O)c2ccc(-c3noc(-c4cccs4)n3)cc2)CCCCC1" > 5 µM

###

experiment-notes: Inhibition of Trypanosoma brucei rhodesain using Cbz-Phe-Arg-AMC as substrate by fluorescence-based assay
Lab note: cut-off is 70 nM. Strictly less in Ki is Condition met. Exactly 70 nM or more is Condition not met.

molecule=CCN(CC)c1ccc2cc(C(=O)NC3(C(=O)NCC#N)CCCCC3)c(=O)oc2c1 label_class="Condition not met"

Please determine if "CSCC[C@H](NC(=O)OC(C)(C)C)C(=O)NCC#N" is below 70 nM in terms of Ki. Condition not met

Please determine if "CC(C)(C)OC(=O)N[C@@H](Cc1ccc(Br)cc1)C(=O)NCC#N" is below 70 nM in terms of Ki. Condition met

Please determine if "COc1ccc(C[C@H](NC(=O)OCc2ccccc2)C(=O)NCC#N)cc1" is below 70 nM in terms of Ki. Condition met

Please determine if "CC[C@H](C)[C@H](NC(=O)OC(C)(C)C)C(=O)NCC#N" is below 70 nM in terms of Ki. Condition not met

Please determine if "CC(C)(C)OC(=O)N[C@@H](Cc1ccco1)C(=O)NCC#N" is below 70 nM in terms of Ki. Condition not met

Please determine if "CC(C)(C)OC(=O)N[C@@H](Cc1ccccc1F)C(=O)NCC#N" is below 70 nM in terms of Ki. Condition met

Please determine if CC(C)CS(=O)(=O)CC(NC(=O)c1cc(-c2ccccc2)cs1)C(=O)NCC#N (racemic) is below 70 nM in terms of Ki. Condition not met

Please determine if "CC(C)[C@H](NC(=O)OC(C)(C)C)C(=O)NCC#N" is below 70 nM in terms of Ki. Condition not met

Please determine if "CC(C)(C)OC(=O)N[C@@H](Cc1ccc(F)cc1)C(=O)NCC#N" is below 70 nM in terms of Ki. Condition met

Please determine if "CC(C)(C)OC(=O)N[C@@H](Cc1cccc(Br)c1)C(=O)NCC#N" is below 70 nM in terms of Ki. Condition met

Please determine if "CC(C)(C)OC(=O)N[C@@H](Cc1ccccc1)C(=O)NCC#N" is below 70 nM in terms of Ki. Condition met

Please determine if "CC(C)(C)OC(=O)N[C@@H](Cc1cccc(F)c1)C(=O)NCC#N" is below 70 nM in terms of Ki. Condition not met

Please determine if "CC(C)(C)OC(=O)N[C@H](C(=O)NCC#N)c1ccccc1" is below 70 nM in terms of Ki. Condition not met

Please determine if "CC(C)(C)OC(=O)N[C@@H](Cc1ccc(-c2ccccc2)cc1)C(=O)NCC#N" is below 70 nM in terms of Ki. Condition met

Please determine if "CC(C)(C)OC(=O)N[C@@H](Cc1c[nH]c2ccccc12)C(=O)NCC#N" is below 70 nM in terms of Ki. Condition not met

Please determine if "CC(C)(C)OC(=O)N[C@@H](COCc1ccccc1)C(=O)NCC#N" is below 70 nM in terms of Ki. Condition not met

Please determine if "CN(C)c1cccc2c(S(=O)(=O)N[C@@H](Cc3ccccc3)C(=O)NCC#N)cccc12" is below 70 nM in terms of Ki. Condition not met

Please determine if "N#CCNC(=O)[C@H](Cc1ccc(O)cc1)NC(=O)OCc1ccccc1" is below 70 nM in terms of Ki. Condition met

###

experiment-notes: Inhibition of Trypanosoma brucei rhodesain using Cbz-Phe-Arg-AMC as substrate by fluorescence-based assay
measured-endpoint: pKi
Numbers only, as −log10 of the molar value.

compound=CC(C)(C)OC(=O)N[C@@H](CC1CCCCC1)C(=O)NCC#N measured_value=7.17
compound=CC(C)(C)OC(=O)N[C@@H](Cc1ccsc1)C(=O)NCC#N measured_value=6.41
compound=CC(C)(C)OC(=O)N[C@@H](Cc1ccc(O)cc1)C(=O)NCC#N measured_value=7.33
compound=CC(C)(C)OC(=O)N[C@@H](Cc1csc2ccccc12)C(=O)NCC#N measured_value=7.05
compound=CCCC[C@H](NC(=O)OC(C)(C)C)C(=O)NCC#N measured_value=6.12
compound=N#CCNC(=O)C1(NC(=O)c2ccc(-c3noc(-c4cccs4)n3)cc2)CCCCC1 measured_value=5.81
compound=CC(C)C[C@H](NC(=O)Nc1ccc(-c2noc(-c3cccs3)n2)cc1)C(=O)NCC#N measured_value=6.76
compound="CC(C)CS(=O)(=O)CC(NC(=O)c1ccc(-c2cccs2)s1)C(=O)NCC#N (racemic)" measured_value=6.05

Hi there! I need pKi for each item below, if you can.
1. CC(C)(C)OC(=O)N[C@H](CC(=O)NC#N)Cc1ccccc1
2. N#CCNC(=O)[C@H](Cc1ccccc1)NC(=O)OCc1ccccc1

5.90
7.38

###

System: Trypanosoma brucei
experiment-notes: Inhibition of Trypanosoma brucei rhodesain using Cbz-Phe-Arg-AMC as substrate at 20 uM by fluorescence-based assay
Please provide measured inhibition for the entries that follow.

Some solved cases for reference:
molecule=CC(C)(C)OC(=O)N[C@@H](Cc1ccco1)C(=O)NCC#N measured_value="> 50%"
molecule=CC(C)(C)OC(=O)N[C@H](C(=O)NCC#N)c1ccccc1 measured_value="> 50%"
molecule=CC(C)(C)OC(=O)N[C@@H](Cc1csc2ccccc12)C(=O)NCC#N measured_value="> 50%"
molecule="CC(C)CS(=O)(=O)CC(NC(=O)c1cc2ccsc2s1)C(=O)NCC#N (racemic)" measured_value=25%
molecule="CC(C)CS(=O)(=O)CC(NC(=O)c1ccc(-c2nnn[nH]2)s1)C(=O)NCC#N (racemic)" measured_value=16%
molecule=CN(C)c1cccc2c(S(=O)(=O)N[C@@H](Cc3ccccc3)C(=O)NCC#N)cccc12 measured_value="> 50%"
molecule=CC(C)(C)OC(=O)N[C@@H](Cc1ccc(Br)cc1)C(=O)NCC#N measured_value="> 50%"
molecule=CC(C)(C)OC(=O)N[C@@H](CC1CCCCC1)C(=O)NCC#N measured_value="> 50%"
molecule="CC(C)CS(=O)(=O)CC(NC(=O)c1ccc(-c2cccs2)s1)C(=O)NCC#N (racemic)" measured_value="> 50%"
molecule="CC(C)CS(=O)(=O)CC(NC(=O)c1cc2ccccc2s1)C(=O)NCC#N (racemic)" measured_value=15%

Hi there! I need inhibition for each item below, if you can.
1. CC(C)CS(=O)(=O)CC(NC(=O)c1ccc(-c2cccs2)cc1)C(=O)NCC#N (racemic)
2. CC(C)CS(=O)(=O)CC(NC(=O)c1cc(-c2ccccc2)cs1)C(=O)NCC#N (racemic)
3. CC(C)[C@H](NC(=O)OC(C)(C)C)C(=O)NCC#N
4. CSCC[C@H](NC(=O)OC(C)(C)C)C(=O)NCC#N
5. CC(C)C[C@H](NC(=O)c1ccc(-c2noc(-c3cccs3)n2)cc1)C(=O)NCC#N
6. CC(C)CS(=O)(=O)CC(NC(=O)c1ccc(-c2ccsc2)s1)C(=O)NCC#N (racemic)
7. N#CCNC(=O)C1(NC(=O)c2ccc(-c3noc(-c4cccs4)n3)cc2)CCCCC1

1: 25%; 2: > 50%; 3: > 50%; 4: > 50%; 5: > 50%; 6: 29%; 7: > 50%

Hi there! I need inhibition for each item below, if you can.
1. N#CCNC(=O)[C@H](Cc1ccc(O)cc1)NC(=O)OCc1ccccc1
2. CC(C)(C)OC(=O)N[C@@H](Cc1ccccc1)C(=O)NCC#N
3. CC[C@H](NC(=O)OC(C)(C)C)C(=O)NCC#N

1. > 50%
2. > 50%
3. 10%

Hi there! I need inhibition for each item below, if you can.
1. CC(C)(C)OC(=O)N[C@@H](Cc1ccc(O)cc1)C(=O)NCC#N
2. N#CCNC(=O)[C@H](Cc1ccccc1)NC(=O)OCc1ccccc1
3. CC(C)C[C@H](NC(=O)Nc1ccc(-c2noc(-c3cccs3)n2)cc1)C(=O)NCC#N

1. > 50%
2. > 50%
3. > 50%
